system: HOP-62 NSCLC; test: NCI tumour cell line growth inhibition, 48 h
Exercise: state measured TGI for each of the compounds provided.

The reported value for CC12C=CC(C)(O1)C1C2c2ccccc2S1(=O)=O (centres undefined) in terms of TGI is > 100 µM

The reported value for CC(=O)NNC(=O)c1nn(-c2ccc(Cl)cc2)cc1OC(C)=O in terms of TGI is > 100 µM

The reported value for N#CSCC1COc2ccccc2O1 (centres undefined) in terms of TGI is > 10 µM

The reported value for Cc1cc(N(CCCNc2ccnc3cc(Cl)ccc23)Cc2cccs2)nc(Cl)n1 in terms of TGI is 29.6 µM

The reported value for OCCc1cnco1 in terms of TGI is > 100 µM

The reported value for COC(=O)C[C@H](COCc1ccccc1)NC(=O)C[C@H](COCc1ccccc1)NC(=O)C[C@H](COCc1ccccc1)NC(=O)OC(C)(C)C in terms of TGI is 48 µM

The reported value for CCN(CC)C(=O)c1c(N2CCOCC2)cc(N(CC)CC)oc1=O in terms of TGI is > 100 µM

The reported value for COc1ccc(N2C(=O)C3c4[nH]c5ccccc5c4C4CCC(C(C)C)CC4C3C2=O)cc1 (centres undefined) in terms of TGI is > 100 µM

The reported value for CSC(=S)N(C)NC(=O)c1cccc(C(=O)NN(C)C(=S)SC)n1 in terms of TGI is 37.3 µM
